Where do the numbers come from? From paper PMC3305660.

- target.under.test: T1, SrbA161-267 (bHLHZ DNA-binding domain) (Aspergillus fumigatus, UniProt Q4WIN1 161-267)
- T1 sequence: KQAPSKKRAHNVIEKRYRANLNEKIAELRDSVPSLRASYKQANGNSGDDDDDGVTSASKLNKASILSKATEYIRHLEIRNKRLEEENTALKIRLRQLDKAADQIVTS
- assay.name: SPR; SPR kinetics on immobilized biotinylated DNA duplexes; buffer, salt, pH and temperature not given in the material (details in Additional file 2)
- recorded.conditions: protein: recombinant; chain copies: 2; label: 5' biotin on strand 1; blunt
measured.parameter: pKd
# pKd is unitless: minus log10 of the molar concentration; print number only

binder: hemApmm11 (hemA -527 to -518) (dsDNA) DNA 1: TCCCCAGTATCGGATCATACGGCTAC DNA 2: GTAGCCGTATGATCCGATACTGGGGA
pKd: 8.38
--
binder: srbApmm0mut (srbA* mutated site) (dsDNA) DNA 1: TTCCCGCGATATAACATAGTGCTCCG DNA 2: CGGAGCACTATGTTATATCGCGGGAA
pKd: 6.41

Query: pKd; subject: hapXpmm12 (hapX -1340 to -1331) (dsDNA) DNA 1: CAGATAAGATCAGATGATGAAGGGAT DNA 2: ATCCCTTCATCATCTGATCTTATCTG 8.33

Tell me the measured pKd of hemApmm12 (hemA -338 to -347) (dsDNA) DNA 1: CTGAGGCAATGAGGCGATGAGGCAAC DNA 2: GTTGCCTCATCGCCTCATTGCCTCAG , please. 7.45

Given the binder hapXpmm11 (hapX -774 to -783) (dsDNA) DNA 1: GCCTTTGAATGGGAGGATTCTTTATT DNA 2: AATAAAGAATCCTCCCATTCAAAGGC , what is its reported pKd? 6.55

May I ask what pKd has been recorded for srbApmm0 (srbA -735 to -726) (dsDNA) DNA 1: TTCCCGCGATCATACGATGTGCTCCG DNA 2: CGGAGCACATCGTATGATCGCGGGAA ? 9.20
